experimental protocol: Cytostatic activity against human HEL cells after 3 days by coulter counter method
Format: ADME, cell-based
Assign CC50 at 72 h to each entry below.

Determine from records and report CC50 at 72 h for CC(=O)C1=C(C)N(Cc2cn(Cc3ccccc3)nn2)C(=O)N(Cc2cn(Cc3ccccc3)nn2)C1c1ccccc1 (stereo unspecified)
7.02 µM

Determine from records and report CC50 at 72 h for CC(=O)C1=C(C)N(Cc2cn(Cc3ccc([N+](=O)[O-])cc3)nn2)C(=O)N(Cc2cn(Cc3ccc([N+](=O)[O-])cc3)nn2)C1c1ccccc1 (stereo unspecified)
> 100 µM

Determine from records and report CC50 at 72 h for COc1ccc(OC)c(C2C(C(C)=O)=C(C)N(Cc3cn(Cc4ccccc4)nn3)C(=O)N2Cc2cn(Cc3ccccc3)nn2)c1 (stereo unspecified)
> 100 µM

Determine from records and report CC50 at 72 h for CC(=O)C1=C(C)N(Cc2cn(Cc3ccccc3)nn2)C(=O)NC1c1ccc(OCc2cn(Cc3ccccc3)nn2)cc1 (stereo unspecified)
> 100 µM

Determine from records and report CC50 at 72 h for O=c1[nH]c(=O)n([C@H]2C[C@H](O)[C@@H](CO)O2)cc1/C=C/Br [BRIVUDINE]
> 300 µM

Determine from records and report CC50 at 72 h for Nc1nc2c(ncn2COCCO)c(=O)[nH]1 [ACYCLOVIR]
> 440 µM
